Data credit: patent US20220112288A1

target: T1, human CD4 on cells (SKW3 cells; human PBMCs) (human, UniProt P01730 26-458); assay: FACS confirmation, supernatant on SKW3 cells; background gMFI 2500
T1 construct: whole, on cells; SKW3 CD4 knockout cells served as the negative cell line in the primary screen; also called hCD4; huCD4
Form field: gMFI on SKW3 WT, anti-hu Kappa FITC (one value per entry).
// note: answer is a bare numeric in gMFI

| binder | gMFI on SKW3 WT, anti-hu Kappa FITC / gMFI |
| --- | --- |
| 75110_06C16A (antibody, V domains shown, Tested as non-clonal AlivaMab Mouse Kappa hybridoma supernatant (detected with anti-mouse Fc gamma and anti-human kappa)) VH: QVQLQESGPGLVTPSETLSLSCTVSGGSISDYYWSWIRQPGGKGLEWIGRIYSSGSTNYNPSLKSRVTMSVDTSKNQFSLKLSSVTAADTAVYFCARDREDYYYYGMDVWGQGTTVTVSS VL: DIQMTQSPSSLSASVGDRVTITCQASHDISNYLNWYQQKPGKAPKLLIYAASNLETGVPSRFSGSGSGTDFSFTISSLQPEDIATYYCQQYDHLPLTFGGGTKVEIK | 4660 |
| 75110_08M20A (antibody, V domains shown, Tested as non-clonal AlivaMab Mouse Kappa hybridoma supernatant (detected with anti-mouse Fc gamma and anti-human kappa)) VH: QVQLQESDPGLVKPSETLSLTCTVSGGSISSYYWSWIRQPAGKGLEWIGRIYASGSTNYNPSLKSRVTMSVDTSKNQFSLKLSSVTAADTAVYYCARDREGYYYYGMDVWGQGTTVTVSS VL: DIQMTQSPSSLSASVGDRVTITCQASQDISKYLNWYQQKPGKAPNLLIYAASNLETGVPSRFSGSGSGTDFTFTISSLQPEDIAAYYCQQYDSLPITFGQGTRLEIK | 7790 |
| 75110_14P08A (antibody, V domains shown, Tested as non-clonal AlivaMab Mouse Kappa hybridoma supernatant (detected with anti-mouse Fc gamma and anti-human kappa)) VH: QVQLQESGPGLVKSSETLSLTCTDSGDSIRSYYWNWIRQPAGKGLEWIGRIYASGSTNYNPSLKSRVIMSADTSKNRFSLKLSSVTAADTAVYYCARDGGVGDSLDYWGQGTLVTVSS VL: DIVMTQTPLSLPVTPGEPASISCRSSQSLLDSDDGNTYLDWYLQKPGQSPQLLIYTLSYRASGVPDRFSGSGSGTDFTLKISRVEAEDVGVYYCMQRIEFPFTFGPGTKVDIK | 5580 |

**Query** Respond only with gMFI on SKW3 WT, anti-hu Kappa FITC recorded for 75110_14I16A (antibody, V domains shown, Tested as non-clonal AlivaMab Mouse Kappa hybridoma supernatant (detected with anti-mouse Fc gamma and anti-human kappa); also called 75110_14116A) VH: QVQLQESGPGLVKPSETLSLTCTVSNGSISSYYWSWIRQSAGKGLEWIGRIYTSGSTNYNPSLKSRVTMLVDTSKNQFSLKLSSVTAADTAVYYCARDREDYYYYGMDVWGQGTTVTVSS VL: DIQMTQSPSSLSASVGDRVTITCQASHDISNYLNWYQQKPGKAPKLLLYYASNLETGVPSRFSGSGSGTDFTFTITSLQPEDIGTYSCQQYDNLPLTFGGGTKVEIK
**Result** 3550

**Query** Respond only with gMFI on SKW3 WT, anti-hu Kappa FITC recorded for 75110_10O16A (antibody, V domains shown, Tested as non-clonal AlivaMab Mouse Kappa hybridoma supernatant (detected with anti-mouse Fc gamma and anti-human kappa); also called 75110_10016A) VH: EVQLVESGGGLVQPGGSLRLSCAASGFTFSNSDMHWVRQATGKGLEWVSTIGTAGDTYYPGSVKGRFTISRENAKNSLYLQMNSLRAGDTAVYYCARGGLYYYGMDVWGQGTTVTVSS VL: ENVLTQSPGTLSLSPGERATLSCRASQSVSSSYLAWYQQKPGQAPRLLIYGASSRATGIPDRFSGSGSGTDFTLTISRLEPEDFAVYYCHQFGSSPFTFGPGTKVDIK
**Result** 3160
